target: D2R S193^5.42A (human dopamine D2S receptor mutant) (Homo sapiens, UniProt P14416, S193A); test: cell-based
Sequence (P14416 1-414 isoform P14416-2 S193A): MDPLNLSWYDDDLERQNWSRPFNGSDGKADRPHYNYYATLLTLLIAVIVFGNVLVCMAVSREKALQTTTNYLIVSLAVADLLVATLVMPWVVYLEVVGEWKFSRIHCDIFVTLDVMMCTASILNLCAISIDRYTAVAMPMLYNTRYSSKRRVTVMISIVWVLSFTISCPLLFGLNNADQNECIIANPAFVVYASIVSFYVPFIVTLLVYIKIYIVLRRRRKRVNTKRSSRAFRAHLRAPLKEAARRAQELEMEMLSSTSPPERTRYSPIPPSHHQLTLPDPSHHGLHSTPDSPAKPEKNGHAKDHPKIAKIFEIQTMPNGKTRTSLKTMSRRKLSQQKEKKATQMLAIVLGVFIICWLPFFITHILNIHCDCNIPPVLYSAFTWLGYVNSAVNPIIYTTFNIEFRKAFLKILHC
METRIC NAME: pKd
// scale note: pKd = -log10(conc_M); give the bare number

(Q) What pKd value was documented for this compound, `NCCc1ccc(O)cc1` ?
(A) 4.93

* * *

molecular target: D2R S193^5.42A (human dopamine D2S receptor mutant) (Homo sapiens, UniProt P14416, S193A); assay: cell-based; conditions: EC50, S193^5.42A D2R; GIRK activation; perfusion 1 mL/min
METRIC NAME: pEC50
// scale note: pEC50 = -log10(conc_M); give the bare number

(Q) What pEC50 value was documented for this compound, `NCCc1ccc(O)cc1` ?
(A) 4.32

* * *

molecular target: WT D2R (human dopamine D2S receptor) (Homo sapiens, UniProt P14416); experiment: cell-based
Sequence (P14416 1-414 isoform P14416-2): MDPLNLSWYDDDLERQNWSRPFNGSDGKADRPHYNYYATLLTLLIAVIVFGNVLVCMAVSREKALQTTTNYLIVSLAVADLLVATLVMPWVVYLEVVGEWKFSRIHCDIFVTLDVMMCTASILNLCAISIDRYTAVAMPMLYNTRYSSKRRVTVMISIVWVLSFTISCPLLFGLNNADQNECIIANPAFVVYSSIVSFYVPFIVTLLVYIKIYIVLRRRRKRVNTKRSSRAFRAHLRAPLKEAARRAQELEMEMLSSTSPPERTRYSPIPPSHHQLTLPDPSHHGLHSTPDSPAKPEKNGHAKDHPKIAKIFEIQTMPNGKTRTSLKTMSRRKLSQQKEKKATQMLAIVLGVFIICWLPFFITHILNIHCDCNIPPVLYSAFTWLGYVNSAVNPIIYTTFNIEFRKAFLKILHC
METRIC NAME: EC50 (µM)
Return type: number; implicit unit µM.

(Q) So what EC50 did `NCCc1ccc(O)cc1` get with WT D2R (human dopamine D2S receptor) (Homo sapiens, UniProt P14416)?
(A) 100

Where do the numbers come from? From paper PMC8071183.
